tested on: Escherichia coli TOP10; assay: shrunken log2 fold change of peptide-encoding DNA abundance (4.5 h post-induction vs induction); higher = less antimicrobial activity (less host growth inhibition); settings: time post-induction: 4.5 h; library: site-saturation at positions 5, 18, 19, 20;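 further: peptides expressed intracellularly from a pBAD plasmid library in pooled LB shake-flask culture, induced with 0.3% L-arabinose, DNA abundance read by NGS, three biological replicates, DESeq2 with apeglm shrinkage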

SEQUENCE_STRING | shrunken log2 fold change
RRIRCRPPRLPRPRPRPWVIPRP | -0.11
RRIRMRPPRLPRPRPRPPNFPRP | 0.35
RRIRLRPPRLPRPRPRPMCWPRP | 0.0663
RRIRMRPPRLPRPRPRPEDMPRP | 3.26
RRIRYRPPRLPRPRPRPITAPRP | -0.00947
RRIRARPPRLPRPRPRPPHIPRP | 0.455
RRIRKRPPRLPRPRPRPCVRPRP | -0.215
RRIRCRPPRLPRPRPRPWWAPRP | 1.27
RRIRARPPRLPRPRPRPEGRPRP | 2.11
RRIRSRPPRLPRPRPRPMHLPRP | -0.118
RRIRERPPRLPRPRPRPLQFPRP | -0.468
RRIRERPPRLPRPRPRPICKPRP | -0.215
RRIRRRPPRLPRPRPRPGECPRP | 0.0146
RRIRTRPPRLPRPRPRPWGRPRP | 0.00879
RRIRPRPPRLPRPRPRPRRAPRP | 0.525
